system: ivyleaf morningglory (Ipomoea hederacea, IPOHE); experiment: Post-emerge greenhouse herbicide test, phytotoxicity rating; assay type: in vivo; details: rate 63 g ai/ha, 14 days after application, scale 0-100
REPORTED_ENDPOINT: phytotoxicity rating IPOHE
The answer should be written as a number, with no unit following it.

The following compounds have reported results that may help.
COc1nc(OC)nc(Oc2cc(-n3c(=O)n4n(c3=S)CCCC4)c(F)cc2Cl)n1 : 100
O=c1n(-c2cc(Oc3nccc(Cl)n3)c(Cl)cc2F)c(=S)n2n1CCCC2 : 80
N#Cc1ccc(Oc2cc(-n3c(=O)n4n(c3=S)CCCC4)c(F)cc2Cl)nc1 : 80
CCOC(=O)C(C)Oc1ccc(Oc2cc(-n3c(=O)n4n(c3=S)CCCC4)c(F)cc2Cl)c([N+](=O)[O-])c1 (stereo not shown) : 100

Input: For COc1cc(Oc2cc(-n3c(=O)n4n(c3=S)CCCC4)c(F)cc2Cl)nc(OC)n1 , write its phytotoxicity rating IPOHE.
Output: 100

Input: For CSc1cccnc1Oc1cc(-n2c(=O)n3n(c2=S)CCCC3)c(F)cc1Cl , write its phytotoxicity rating IPOHE.
Output: 100

Input: For Nn1c(C(F)(F)F)cc(=O)n(-c2cc(Oc3cccc(F)n3)c(Cl)cc2F)c1=O , write its phytotoxicity rating IPOHE.
Output: 100

---

# reported crop damage rating SOY; entries follow
system: soybean (Glycine max L., var. Pella 86, SOY); experiment: Pre-emerge greenhouse test, crop damage rating; format: in vivo; details: 125 g ai/ha, 14 days after application, rating scale 0-100

The following compounds have reported results that may help.
N#Cc1cccnc1Oc1cc(-n2nnn(CCCF)c2=O)c(F)cc1Cl [Compound 6-4] : 0
Cc1nsc(Oc2cc(-n3nnn(CCCF)c3=O)c(F)cc2Cl)c1[N+](=O)[O-] [Compound 6-17] : 0
Nc1ccc(Oc2cc(-n3c(=O)n4n(c3=S)CCCC4)c(F)cc2Cl)c(C(F)(F)F)c1 [Compound 8-15] : 0
O=c1n(CCCF)nnn1-c1cc(Oc2ncccc2[N+](=O)[O-])c(Cl)cc1Cl [Compound 6-3] : 0
O=c1sc(=Nc2cc(Oc3ncccn3)c(Cl)cc2F)n2n1CCCC2 [Compound 7-2] : 0
O=c1n(CCCF)nnn1-c1cc(Oc2ncccc2C(F)(F)F)c(Cl)cc1Cl [Compound 6-7] : 80
N#Cc1cccnc1Oc1cc(-n2nnn(CCCF)c2=O)c(Cl)cc1Cl [Compound 6-5] : 10
O=c1n(-c2cc(Oc3ccc([N+](=O)[O-])cc3C(F)(F)F)c(Cl)cc2F)c(=S)n2n1CCCC2 [Compound 8-14] : 0
N#Cc1cc([N+](=O)[O-])ccc1Oc1cc(-n2c(=O)n3n(c2=S)CCCC3)c(F)cc1Cl [Compound 8-12] : 0
Cn1nc(-c2cc(Oc3ccc(C#N)cn3)c(Cl)cc2F)c(Cl)c1C(F)(F)F [Compound 1-4] : 10

Input: For O=c1n(CCCF)nnn1-c1cc(Oc2ncccc2C(F)(F)F)c(Cl)cc1F [Compound 6-6] , write its crop damage rating SOY.
Output: 0

Input: For CN1CC(=O)N(c2cc(Oc3ncccn3)c(Cl)cc2F)C1=O [Compound 8-3] , write its crop damage rating SOY.
Output: 0

Input: For O=c1n(CCCF)nnn1-c1cc(Oc2ncc(Br)cn2)c(Cl)cc1F [Compound 6-16] , write its crop damage rating SOY.
Output: 0

Input: For Nc1ccc(Oc2cc(-n3c(=O)n4n(c3=S)CCCC4)c(F)cc2Cl)cc1 [Compound 8-9] , write its crop damage rating SOY.
Output: 0

Input: For CCOC(=O)C(C)Oc1ccc(Oc2cc(-n3c(=O)n4n(c3=S)CCCC4)c(F)cc2Cl)cc1 (centres unmarked) [Compound 8-11] , write its crop damage rating SOY.
Output: 20

Input: For O=c1n(-c2cc(Oc3ccccc3[N+](=O)[O-])c(Cl)cc2F)c(=S)n2n1CCCC2 [Compound 8-6] , write its crop damage rating SOY.
Output: 20

Input: For O=c1n(CCCF)nnn1-c1cc(Oc2ccc(C(F)(F)F)cn2)c(Cl)cc1Cl [Compound 6-9] , write its crop damage rating SOY.
Output: 0

Input: For Cn1nc(-c2cc(Oc3cccc(F)n3)c(Cl)cc2F)c(Cl)c1C(F)(F)F [Compound 1-5] , write its crop damage rating SOY.
Output: 0

Input: For N#Cc1ccccc1Oc1cc(-n2c(=O)n3n(c2=S)CCCC3)c(F)cc1Cl [Compound 8-7] , write its crop damage rating SOY.
Output: 0

Input: For O=c1cc2n(c(=O)n1-c1cc(Oc3ncccn3)c(Cl)cc1F)CCC2 [Compound 5-12] , write its crop damage rating SOY.
Output: 40

---

system: soybean (Glycine max L., var. Pella 86, SOY); test: Post-emerge greenhouse test, crop damage rating; assay type: in vivo; set-up: key: 0-100 scale: 0 = no damage, 100 = complete death of all plants; conditions: rate 63 g ai/ha, 14 days after application, scale 0-100
REPORTED_ENDPOINT: crop damage rating SOY
The answer should be written as a number, with no unit following it.

COc1nc(OC)nc(Oc2cc(-n3c(=O)n4n(c3=S)CCCC4)c(F)cc2Cl)n1 [Compound 8-34] : 50
CCOC(=O)C(C)Oc1ccc(Oc2cc(-n3c(=O)n4n(c3=S)CCCC4)c(F)cc2Cl)c([N+](=O)[O-])c1 (stereo not shown) [Compound 8-39] : 60
Cc1nsc(Oc2cc(-n3c(=O)n4n(c3=S)CCCC4)c(F)cc2Cl)c1[N+](=O)[O-] [Compound 8-35] : 20
CCOC(=O)C(C)Oc1cc([N+](=O)[O-])c(Oc2cc(-n3c(=O)n4n(c3=S)CCCC4)c(F)cc2Cl)cc1Cl (stereo not shown) [Compound 8-38] : 10
CS(=O)(=O)c1cccnc1Oc1cc(-n2c(=O)n3n(c2=S)CCCC3)c(F)cc1Cl [Compound 8-21] : 90

Input: For O=c1n(-c2cc(Oc3nccc(Cl)n3)c(Cl)cc2F)c(=S)n2n1CCCC2 [Compound 8-31] , write its crop damage rating SOY.
Output: 70

Input: For O=c1n(-c2cc(Oc3nccc(C(F)(F)F)n3)c(Cl)cc2F)c(=S)n2n1CCCC2 [Compound 8-30] , write its crop damage rating SOY.
Output: 95

---

test system: redroot pigweed (Amaranthus retroflexus, AMARE); test: Pre-emerge greenhouse herbicide test, phytotoxicity rating; assay type: in vivo; conditions: 500 g ai/ha, 14 days after application, rating scale 0-100
# reported phytotoxicity rating AMARE; entries follow
The answer should be written as a number, with no unit following it.

O=C1C2=CCCCN2C(=O)N1c1cc(Oc2ncccc2C(F)(F)F)c(Cl)cc1F [Compound 4-2] : 100
O=c1cc2n(c(=O)n1-c1cc(Oc3ncccn3)c(Cl)cc1F)CCC2 [Compound 5-12] : 100
Nc1ccc(Oc2cc(-n3c(=O)n4n(c3=S)CCCC4)c(F)cc2Cl)c(C(F)(F)F)c1 [Compound 8-15] : 40
CCN1CC(=O)N(c2cc(Oc3ncccc3C(F)(F)F)c(Cl)cc2F)C1=O [Compound 8-1] : 100
O=c1n(CCCF)nnn1-c1cc(Oc2ncc(Br)cn2)c(Cl)cc1F [Compound 6-16] : 100

Input: For COc1cc(OC)nc(Oc2cc(-n3nnn(CCCF)c3=O)c(F)cc2Cl)n1 [Compound 6-15] , write its phytotoxicity rating AMARE.
Output: 100

Input: For CS(=O)(=O)Nc1ccc(Oc2cc(-n3c(=O)cc4n(c3=O)CCC4)c(F)cc2Cl)cc1 [Compound 5-5] , write its phytotoxicity rating AMARE.
Output: 95

Input: For Cn1nc(-c2cc(Oc3ncccc3C#N)c(Cl)cc2F)c(Cl)c1C(F)(F)F [Compound 1-3] , write its phytotoxicity rating AMARE.
Output: 100

Input: For O=c1sc(=Nc2cc(Oc3ncccn3)c(Cl)cc2F)n2n1CCCC2 [Compound 7-2] , write its phytotoxicity rating AMARE.
Output: 100

Input: For N#Cc1cc([N+](=O)[O-])ccc1Oc1cc(-n2c(=O)n3n(c2=S)CCCC3)c(F)cc1Cl [Compound 8-12] , write its phytotoxicity rating AMARE.
Output: 100

---

tested on: field corn (Zea mays L., var. Dekalb 535, CORN); test: Post-emerge greenhouse test, crop damage rating; assay type: in vivo; conditions: 63 g al/ha, 14 days after application
REPORTED_ENDPOINT: CORN crop damage rating (0-100)
The answer should be written as a number, with no unit following it.

The following molecules have reported results that may help.
O=C1C2CCCCN2C(=O)N1c1cc(Oc2ncccc2C(F)(F)F)c(Cl)cc1F (centres unmarked) : 5
N#Cc1cccnc1Oc1cc(-n2nnn(CCCF)c2=O)c(Cl)cc1Cl : 0
O=c1n(CCCF)nnn1-c1cc(Oc2ncccn2)c(Cl)cc1Cl : 0
O=c1n(-c2cc(Oc3ccccc3)c(Cl)cc2F)c(=S)n2n1CCCC2 : 5
Nc1ccc(Oc2cc(-n3c(=O)n4n(c3=S)CCCC4)c(F)cc2Cl)c(C(F)(F)F)c1 : 0

Input: For O=c1n(CCCF)nnn1-c1cc(Oc2ncccc2C(F)(F)F)c(Cl)cc1Cl , write its CORN crop damage rating (0-100).
Output: 0

Input: For Cn1c(C(F)(F)F)nc(-c2cc(Oc3ncccc3[N+](=O)[O-])c(Cl)cc2F)c1Cl , write its CORN crop damage rating (0-100).
Output: 15

Input: For CCN1CC(=O)N(c2cc(Oc3ncccn3)c(Cl)cc2F)C1=O , write its CORN crop damage rating (0-100).
Output: 5
